details: in methanol, 293.15 K
assay_readout: solubility (mole fraction)

> print(dat)
          smiles.repr  quantitative.readout
1  O=C(O)c1ccc(Br)cn1                0.0124

###

settings: in methyl acetate, 288.15 K
assay_readout: solubility (mole fraction)

> print(dat)
          smiles.repr  quantitative.readout
1  O=C(O)c1ccc(Br)cn1                0.0117

###

settings: in ethanol, 323.15 K
assay_readout: solubility (mole fraction)

> print(dat)
          smiles.repr  quantitative.readout
1  O=C(O)c1ccc(Br)cn1                0.0379

###

settings: in n-propanol, 308.15 K
assay_readout: solubility (mole fraction)

> print(dat)
          smiles.repr               assay.readout  quantitative.readout
1  O=C(O)c1ccc(Br)cn1  solubility (mole fraction)                0.0296
